Listed compounds paired with reported CLint scaled at 1 µM
# ASSAY REMARKS: in vitro
# MEASUREMENT CONTEXT: human, hepatocytes, Scaled HH CLint,u average
Write down the numeric answer in mL/min/kg and omit the unit.

State the recorded CLint scaled at 1 µM for this entry: `C[C@@H]1C[C@H]2[C@@H]3CCC4=CC(=O)C=C[C@]4(C)[C@@]3(F)[C@@H](O)C[C@]2(C)[C@@]1(O)C(=O)CO` 2.49

---
State the recorded CLint scaled at 1 µM for this entry: `CCC1=C[C@@H]2CN(C1)Cc1c([nH]c3ccccc13)[C@@](C(=O)OC)(c1cc3c(cc1OC)N(C)[C@H]1[C@@](O)(C(=O)OC)[C@H](OC(C)=O)[C@]4(CC)C=CCN5CC[C@]31[C@@H]54)C2` 43.6

State the recorded CLint scaled at 1 µM for this entry: `CNC(=O)c1ccccc1Sc1ccc2c(/C=C/c3ccccn3)n[nH]c2c1` 16.8

Where do these numbers come from? They come from paper PMC12592420.
